Target: hKv3.1b (Homo sapiens)
Construct: expressed in transfected cells
Sequence (P48547 1-585 isoform P48547-2): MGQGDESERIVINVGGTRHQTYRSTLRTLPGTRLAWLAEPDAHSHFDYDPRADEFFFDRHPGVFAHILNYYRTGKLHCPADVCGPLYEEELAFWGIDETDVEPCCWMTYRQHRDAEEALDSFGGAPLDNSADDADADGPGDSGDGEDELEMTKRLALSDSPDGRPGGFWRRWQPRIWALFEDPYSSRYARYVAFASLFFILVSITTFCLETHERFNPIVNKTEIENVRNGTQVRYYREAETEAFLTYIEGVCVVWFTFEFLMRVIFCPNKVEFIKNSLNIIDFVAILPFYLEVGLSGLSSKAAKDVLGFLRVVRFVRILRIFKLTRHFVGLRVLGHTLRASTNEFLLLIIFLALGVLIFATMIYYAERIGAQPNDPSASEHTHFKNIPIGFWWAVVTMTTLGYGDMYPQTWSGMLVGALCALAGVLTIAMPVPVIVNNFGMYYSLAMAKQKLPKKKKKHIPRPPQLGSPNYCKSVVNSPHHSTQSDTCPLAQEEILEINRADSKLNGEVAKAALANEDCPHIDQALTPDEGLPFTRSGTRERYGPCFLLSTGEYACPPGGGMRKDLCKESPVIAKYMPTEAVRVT
Assay: Automated whole-cell patch-clamp (QPatch-16x) on HEK-293 cells stably expressing hKv3.1b: shift of voltage threshold for channel activation
Format: cell-based
Conditions: concentration needed to shift the threshold 5 mV, read out from fitted concentration response curve; HEK-293 hKv3.1b
Procedure: HEK-293 cells stably expressing hKv3.1b was used for the experiments. Cells were cultured in DMEM medium supplemented with 10% Fetal Bovine Serum, 100 ug/mL Geneticidin and 100 u/mL Penicillin/Streptomycin (all from Gibco). Cells were grown to 80-90% confluency at 37° C. and 5% CO2. […] Leak subtraction protocol was applied at −33% of the sweep amplitude, and serial resistance values were constantly monitored. […]
EXPERIMENTAL_ENDPOINT: ECdelta5mV (nM)

# annotated cases, reported ECdelta5mV shown
COMPOUND | EXPERIMENTAL_ENDPOINT | MEAS_VALUE
Cc1ccccc1S(=O)(=O)n1ccc(C(=O)NCc2ccn(C)n2)n1 [Compound 26] | ECdelta5mV | 2900
Cc1cnc(CNC(=O)c2ccn(S(=O)(=O)c3ccccc3C)n2)o1 [Compound 17] | ECdelta5mV | 3900
Cc1cccc(S(=O)(=O)n2ccc(C(=O)NCc3cnn(C)c3)n2)c1 [Compound 21] | ECdelta5mV | 3700
Cc1ccc(S(=O)(=O)n2ccc(C(=O)NCc3ncc(C)o3)n2)cc1 [Compound 30] | ECdelta5mV | 3400
Cn1ccc(CNC(=O)c2ccn(S(=O)(=O)c3ccc(F)cc3)n2)n1 [Compound 35] | ECdelta5mV | 4800
Cc1ccc(S(=O)(=O)n2ccc(C(=O)NCc3nncs3)n2)cc1 [Compound 47] | ECdelta5mV | 3300
Cc1cccc(S(=O)(=O)n2ccc(C(=O)NCc3ccn(C)n3)n2)c1 [Compound 22] | ECdelta5mV | 3700
Cc1cnc(CNC(=O)c2ccn(S(=O)(=O)c3ccc(Cl)cc3F)n2)cn1 [Compound 73] | ECdelta5mV | 2400

1. Cc1ccc(CNC(=O)c2ccn(S(=O)(=O)c3cccc(C)c3)n2)nc1 [Compound 20]
2. COc1ccc(S(=O)(=O)n2ccc(C(=O)NCc3ccn(C)n3)n2)cc1 [Compound 44]
3. COc1ccc(S(=O)(=O)n2ccc(C(=O)NCc3cnc(C)nc3)n2)cc1 [Compound 11]
4. Cc1cccc(S(=O)(=O)n2ccc(C(=O)NCc3ncc(C)o3)n2)c1 [Compound 18]
Prompt: Please produce an ascending ranking of these compounds based on ECdelta5mV. Return the labels ranked in the requested order, please.
Response: 2, 3, 1, 4

P. Cc1cc(CNC(=O)c2ccn(S(=O)(=O)c3ccccc3C)n2)on1 [Compound 29]
Q. Cc1cnc(CNC(=O)c2ccn(S(=O)(=O)c3ccc(Cl)cc3C)n2)cn1 [Compound 67]
R. COc1ccc(S(=O)(=O)n2ccc(C(=O)NCc3cnc(C)cn3)n2)cc1C [Compound 1]
Prompt: # rank by ECdelta5mV, ascending (min first) Record the ranking as a list of labels in the requested order.
Response: Q, R, P
(Q: 1100 nM, R: 1800 nM, P: 3100 nM)

P. Cc1ccc(S(=O)(=O)n2ccc(C(=O)NCc3cscn3)n2)cc1 [Compound 52]
Q. Cc1ccc(S(=O)(=O)n2ccc(C(=O)NCc3cncnc3)n2)cc1 [Compound 54]
Prompt: Would you kindly point out which of P and Q has the smaller ECdelta5mV figure? Please respond with the label that marks your chosen entry.
Response: P
(P: 1500 nM, Q: 2400 nM)
